# credit: PubChem BioAssay (Tox21)

- testSummary: p53 small molecule agonists, cell-based qHTS assay with rat liver microsomes: qHTS cell viability counter screen (AID 1963580); note: nearly all actives have a fitted effect of over 45% in size
- conditionParameters: p53RE-bla HCT-116 + rat microsomes, ATP viability, 16 h; series mostly up to 66 µM
Results filed as inconclusive are left out. Active and inactive are the calls of the source. Calls come from the whole dose curve.

molecule: OC(Cc1ccccc1Cl)(Cn1[nH]cnc1=S)C1(Cl)CC1 (stereo not drawn)
outcome: inactive
//
molecule: COc1ccc(C=O)cc1O
outcome: inactive
//
molecule: CN(C)C1CSSSC1
outcome: inactive

====

- testSummary: p53 small molecule agonists, cell-based qHTS assay: qHTS cell viability counter screen (AID 1963581); note: nearly all actives have a fitted effect of over 45% in size; note: potency is the fitted concentration of half-maximal effect
- conditionParameters: p53RE-bla HCT-116 viability, ATP luminescence, 16 h; series mostly up to 66 µM
Inconclusive results are not listed. The source made the active and inactive calls. Calls come from the whole dose curve.
endpointLabel: Potency

The cases that follow already have their Potency on record.
compound: CC(Cl)C(C)Cl (stereo unspecified)
Potency: inactive
//
compound: Nc1nc(N)c(N)c(N)n1
Potency: inactive
//
compound: CCC1(CCC(C)C)C(=O)NC(=O)NC1=O
Potency: inactive
//
compound: N#Cc1sc2c(=O)c3ccccc3c(=O)c=2sc1C#N
Potency: 4.08 µM (active)
//
compound: O=[N+]([O-])c1ccc(O)c([N+](=O)[O-])c1
Potency: inactive

query: Recorded Potency for O=C(O)C(O)C(O)C(=O)O (stereo unspecified) , please?
result: inactive
